- study.target: hTLR7 (Homo sapiens)
- Construct: expressed in transfected cells; host or cells: HEK-Blue hTLR7 reporter cell line
- Sequence (Q9NYK1 27-1049): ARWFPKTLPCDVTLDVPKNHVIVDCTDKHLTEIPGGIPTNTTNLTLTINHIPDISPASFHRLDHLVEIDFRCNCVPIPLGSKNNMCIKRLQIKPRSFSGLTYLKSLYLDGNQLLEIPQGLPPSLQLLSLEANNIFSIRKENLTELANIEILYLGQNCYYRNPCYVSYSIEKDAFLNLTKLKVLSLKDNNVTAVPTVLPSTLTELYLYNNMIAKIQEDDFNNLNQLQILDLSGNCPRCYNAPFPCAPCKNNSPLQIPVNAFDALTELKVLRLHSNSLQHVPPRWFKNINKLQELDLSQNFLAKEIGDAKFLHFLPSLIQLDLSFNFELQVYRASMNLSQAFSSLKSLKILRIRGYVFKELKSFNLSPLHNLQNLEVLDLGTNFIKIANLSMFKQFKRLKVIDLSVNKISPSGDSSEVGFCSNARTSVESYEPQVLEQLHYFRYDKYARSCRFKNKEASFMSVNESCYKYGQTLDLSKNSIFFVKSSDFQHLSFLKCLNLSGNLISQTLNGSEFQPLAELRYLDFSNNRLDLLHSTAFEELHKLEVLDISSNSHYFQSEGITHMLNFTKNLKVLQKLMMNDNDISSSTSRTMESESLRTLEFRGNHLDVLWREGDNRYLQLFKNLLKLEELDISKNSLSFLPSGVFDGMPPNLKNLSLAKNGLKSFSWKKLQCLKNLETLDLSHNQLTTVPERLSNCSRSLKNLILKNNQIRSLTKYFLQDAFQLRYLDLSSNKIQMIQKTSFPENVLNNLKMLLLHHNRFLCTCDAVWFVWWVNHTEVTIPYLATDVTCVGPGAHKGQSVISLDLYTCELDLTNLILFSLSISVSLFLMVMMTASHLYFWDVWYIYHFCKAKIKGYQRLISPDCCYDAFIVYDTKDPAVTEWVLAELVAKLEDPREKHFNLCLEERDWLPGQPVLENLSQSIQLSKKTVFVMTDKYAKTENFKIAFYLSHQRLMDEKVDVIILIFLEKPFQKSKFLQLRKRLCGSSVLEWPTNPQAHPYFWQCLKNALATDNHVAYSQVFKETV
- assay.protocol: HEK-Blue hTLR7 reporter assay (NF-kB-induced SEAP, Quanti-Blue)
- Assay type: cell-based
- setup.conditions: Table 10; read-out: TLR7 EC50
quantity.kind: EC50 (nM)
Just the number please, in nM, no unit attached.

# molecule, observed.measurement
rows = [
    ("CCCCc1nc2c(N)nc3cccnc3c2n1CCCCNC(=O)c1ccc(N)c(OC)c1 [AXC-736]", 213),
]

Now examine the next entry.
Q: Please look up its EC50: CCCCNc1nc(N)c2[nH]c(=O)n(Cc3ccc(OCCN(C)C)nc3)c2n1 [DSR-6434, reference compound]
Result: 9.2
